# measured.target: T1, human LAP-TGFB1 Fc fusion (human)
# T1 construct: also called human LAP-TGFβ1-Fc; human LAP-TGFβ-Fc isoform 1
# T1 sequence (chain, as listed by the source limits assumed): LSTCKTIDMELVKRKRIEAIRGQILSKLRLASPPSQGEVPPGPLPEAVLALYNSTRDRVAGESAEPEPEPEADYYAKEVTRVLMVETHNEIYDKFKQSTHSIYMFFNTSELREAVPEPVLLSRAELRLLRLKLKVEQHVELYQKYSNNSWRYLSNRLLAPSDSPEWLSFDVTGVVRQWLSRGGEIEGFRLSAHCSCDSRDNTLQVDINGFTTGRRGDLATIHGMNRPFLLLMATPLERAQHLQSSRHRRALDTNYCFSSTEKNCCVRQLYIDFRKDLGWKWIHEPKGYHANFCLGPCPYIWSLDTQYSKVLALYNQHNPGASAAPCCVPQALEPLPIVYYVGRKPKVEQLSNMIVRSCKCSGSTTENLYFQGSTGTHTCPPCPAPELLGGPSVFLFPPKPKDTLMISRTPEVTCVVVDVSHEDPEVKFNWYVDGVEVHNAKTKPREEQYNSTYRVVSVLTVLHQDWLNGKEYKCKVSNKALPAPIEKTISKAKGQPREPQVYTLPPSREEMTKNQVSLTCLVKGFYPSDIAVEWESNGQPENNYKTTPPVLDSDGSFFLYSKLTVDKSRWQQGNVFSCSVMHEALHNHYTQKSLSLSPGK
# experiment.notes: SPR, antigen-Fc captured, Fab analyte
reported.endpoint: Fold improvement in KD
Param answer (str): number followed by unit.

(Q) If you can, please state the reported Fold improvement in KD value of VH W33Y/VL R53Y (91BJM) (Fab, V domains shown, also called VH33/VL53) VH: EVQLVQSGAEVKKPGASVKVSCKASGYTFTSYYMHWVRQAPGQGLEWMGRIDPQSGGIKYAQKFQGRATLTVDTSTSTAYMELSRLRSDDTAVYYCARWDYGGYFDVWGQGTLVTVSS VL: DIQMTQSPSSLSASVGDRVTITCRASQDITNYLNWYQQKPGKAVKLLIYYTSYLHSGVPSRFSGSGSGTDYTLTISSLQPEDFATYFCQQGDTLPWTFGQGTKLEIKR .
(A) 7 fold

(Q) Same lookup for VH W33Y/VL T30Y (90BJM) (Fab, V domains shown, also called VH33/VL30) VH: EVQLVQSGAEVKKPGASVKVSCKASGYTFTSYYMHWVRQAPGQGLEWMGRIDPQSGGIKYAQKFQGRATLTVDTSTSTAYMELSRLRSDDTAVYYCARWDYGGYFDVWGQGTLVTVSS VL: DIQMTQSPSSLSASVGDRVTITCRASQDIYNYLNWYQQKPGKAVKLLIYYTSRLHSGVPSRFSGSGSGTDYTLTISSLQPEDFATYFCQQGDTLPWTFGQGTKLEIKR , please.
(A) 20 fold

(Q) And what about the binder VH W33Y/VL T93Y (92BJM) (Fab, V domains shown, also called VH33/VL93) VH: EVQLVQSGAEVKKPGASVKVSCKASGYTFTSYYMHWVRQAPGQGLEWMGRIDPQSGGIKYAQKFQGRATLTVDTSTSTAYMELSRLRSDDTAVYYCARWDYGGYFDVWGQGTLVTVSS VL: DIQMTQSPSSLSASVGDRVTITCRASQDITNYLNWYQQKPGKAVKLLIYYTSRLHSGVPSRFSGSGSGTDYTLTISSLQPEDFATYFCQQGDYLPWTFGQGTKLEIKR ?
(A) 4 fold

(Q) What do you have for 20E6 Fab (80BGJ/85BIT) (Fab, V domains shown, also called 20E6 (80BGJ); 20E6 (85BIT)) VH: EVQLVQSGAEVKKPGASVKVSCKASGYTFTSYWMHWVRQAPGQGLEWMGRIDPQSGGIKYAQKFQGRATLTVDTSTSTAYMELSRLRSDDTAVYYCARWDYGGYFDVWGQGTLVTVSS VL: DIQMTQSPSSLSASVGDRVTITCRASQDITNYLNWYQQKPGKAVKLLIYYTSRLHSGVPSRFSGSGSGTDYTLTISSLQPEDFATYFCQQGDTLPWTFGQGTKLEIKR ?
(A) 1 fold
